Values from patent US6368552B1

- Test: Autoclave test of transference of the chemical from liquid water phase to steam phase at 200° C. (gas chromatography)
- Type: physicochemical
- Recorded Conditions: 200 mg/liter aqueous solution, pH 11.5 with sodium hydroxide, autoclave 200° C., liquid phase sample
Conc. of chemical in water values by entry
// return numeric value only (unit: µg/mL, not printed)

Solved entries:
{"Compound": "C=CCc1ccc(O)c(OC)c1", "Observed Property": "Conc. of chemical in water", "Measured Number": 184}
{"Compound": "CCCCCC1CCC(=O)O1 (centres unmarked)", "Observed Property": "Conc. of chemical in water", "Measured Number": 188}

Param item = CCCCCCC1CCC(=O)O1 (centres unmarked) ; retrieve measured Conc. of chemical in water. 187

Param item = CC=Cc1ccc(O)c(OC)c1 ; retrieve measured Conc. of chemical in water. 186

* * *

Conc. of chemical in steam values by entry
- Test: Autoclave test of transference of the chemical from liquid water phase to steam phase at 200° C. (gas chromatography)
- Type: physicochemical
- Recorded Conditions: 200 mg/liter aqueous solution, pH 11.5 with sodium hydroxide, autoclave 200° C., steam phase sample
// return numeric value only (unit: µg/mL, not printed)

Solved entries:
{"Compound": "C=CCc1ccc(O)c(OC)c1 [Example 4, Eugenol]", "Measured Number": 418}
{"Compound": "CCCCCCC1CCC(=O)O1 (centres unmarked) [Example 2, γ-decalactone]", "Measured Number": 120}
{"Compound": "CC=Cc1ccc(O)c(OC)c1 [Example 5, Isoeugenol]", "Measured Number": 453}

--- query ---
Param item = CCCCCC1CCC(=O)O1 (centres unmarked) [Example 1, γ-nonalactone] ; retrieve measured Conc. of chemical in steam. 207
